assayRemarks: Plasma protein binding (unknown origin)
Assay type: ADME, cell-free
measurementConditions: read-out: PPB (converted)
experimentalEndpoint: fraction unbound

Given `COc1c(OCC2CCOCC2)cc(N2C[C@@H](C)n3c(c(CCCOc4cc(C)c(Cl)c(C)c4)c4ccc(Cl)c(-c5c(C)nc(C)nc5C)c43)C2=O)c2c1cc(C(=O)O)n2C` , state its recorded fraction unbound.
0.002

----------
assayRemarks: Dose normalized AUC in mouse at 5 mg/kg, iv by HPLC-MS/MS analysis
Format: ADME, organism-based
measurementConditions: in vivo
experimentalEndpoint: AUC/dose (nM·h/mg/kg)
Answers are plain numbers, in nM·h/mg/kg.

Query (compound): `COc1c(O[C@H]2CCOC2)cc(N2C[C@@H](C)n3c(c(CCCOc4cc(C)c(Cl)c(C)c4)c4ccc(Cl)c(-c5c(C)nc(C)nc5C)c43)C2=O)c2c1cc(C(=O)O)n2C` ; field requested: AUC/dose
1860

----------
assayRemarks: AUC in CB17/Icr-Prkdc(scid)/IcrCrl mouse at 60 mg/kg, iv administered daily for 7 days and measured upto 21 days in presence of (R)-7-(7-Chloro-10-(3-(4-chloro-3,5-dimethylphenoxy)propyl)-4-methyl-1-oxo-6-(2,4,6-trimethylpyrimidin-5-yl)-3,4-dihydropyrazino[1,2-a]indol-2(1H)-yl)-4-methoxy-1-methyl-5-((tetrahydro-2H-pyran-4-yl)methoxy)-1H-indole-2-carboxylic Acid
Format: ADME, organism-based
measurementConditions: in vivo, time < 21 day
experimentalEndpoint: AUC at 504 h (µM·h)
Answers are plain numbers, in µM·h.

# lookup: AUC at 504 h of CC(=O)O[C@@]12CO[C@@H]1C[C@H](O)[C@@]1(C)C(=O)[C@H](O)C3=C(C)[C@@H](OC(=O)[C@H](O)[C@@H](NC(=O)OC(C)(C)C)c4ccccc4)C[C@@](O)([C@@H](OC(=O)c4ccccc4)[C@H]21)C3(C)C [DOCETAXEL ANHYDROUS]
0.0234

----------
assayRemarks: AUC in CB17/Icr-Prkdc(scid)/IcrCrl mouse at 60 mg/kg, iv administered daily for 7 days and measured upto 21 days in presence of docetaxel
Type: ADME, organism-based
measurementConditions: in vivo, time < 21 day
experimentalEndpoint: AUC at 504 h (nM·h)
One number for each entry, in nM·h.

# AUC at 504 h lookup, item `COc1c(OCC2CCOCC2)cc(N2C[C@@H](C)n3c(c(CCCOc4cc(C)c(Cl)c(C)c4)c4ccc(Cl)c(-c5c(C)nc(C)nc5C)c43)C2=O)c2c1cc(C(=O)O)n2C`
382
